Experiment: physchem
readout: pKa
Respond with the number and no other words.

Illustrative cases are given below, each with its answer.
| compound | readoutValue |
| --- | --- |
| CC1(c2cccc(-c3cncnc3)c2)N=C(N)c2ccccc2S1 (stereo unspecified) | 8.3 |
| CC1(c2cccc(-c3cccnc3)c2)N=C(N)c2ccccc2O1 (stereo unspecified) | 8.2 |
| CC1(c2cccc(-c3cncnc3)c2)N=C(N)CCS1 (stereo unspecified) | 9.1 |
| CC1(c2cccc(-c3cncnc3)c2)N=C(N)c2c(F)cccc2O1 (stereo unspecified) | 6.9 |

Recorded pKa for COc1ccc(C2(c3cccc(-c4cncnc4)c3)N=C(N)c3nc(C)sc32)cc1 (stereo unspecified) , please?
8

###

The following molecules are listed with their measured pKa values.
Test: physchem

Solved cases below.
| molecule | pKa |
| --- | --- |
| C[C@]1(c2cccc(-c3cncc(F)c3)c2)N=C(N)[C@H]2CCCCN21 (relative stereo) | 9.2 |
| COc1ccc(C2(c3cccc(-c4cncnc4)c3)N=C(N)n3nc(C)cc32)cc1 (centres undefined) | 5.4 |
| COc1cccc(-c2cccc(C3(C)COCC(N)=N3)c2)c1 (centres undefined) | 9.8 |

# next molecule below
Query: pKa; subject: CCC1(c2cccc(-c3cncnc3)c2)N=C(N)c2ccccc2O1 (centres undefined)
8.4

###

Assay: in vitro
Conditions: human, Caco-2, pH 7.4, Papp
readout: Papp A→B at 10 µM (×10⁻⁶ cm/s)
Response body: numeric value in ×10⁻⁶ cm/s, unit text excluded.

Examples from the recorded data:
| molecule | Papp A→B at 10 µM (×10⁻⁶ cm/s) |
| --- | --- |
| COc1ccc(C2(c3cccc(-c4cccnc4)c3)N=C(N)CS2)cc1 (stereo unspecified) | 19 |
| CC1(c2cccc(-c3cncnc3)c2)N=C(N)c2ccccc2O1 (stereo unspecified) | 31 |
| CC1(c2cccc(-c3cncnc3)c2)N=C(N)CCS1 (stereo unspecified) | 21 |
| COc1cccc(-c2cccc(C3(C)CCSC(N)=N3)c2)c1 (stereo unspecified) | 72 |
| COc1cccc(-c2cccc(C3(C)N=C(N)CS3)c2)c1 (stereo unspecified) | 15 |

Quick check: Papp A→B at 10 µM of COc1cccc(-c2cccc(C3(C)N=C(N)CN3C(C)=O)c2)c1 (stereo unspecified) ?
16

Given CC1(c2cccc(-c3cccnc3)c2)N=C(N)c2ccccc2O1 (stereo unspecified) , state its recorded Papp A→B at 10 µM.
17

Fill in the blank: the reported Papp A→B at 10 µM of COc1cccc(-c2cccc(C3(C)COCC(N)=N3)c2)c1 (stereo unspecified) is ____.
20

Name the recorded Papp A→B at 10 µM for CC1(c2cccc(-c3cccnc3)c2)N=C(N)c2c(F)cccc2O1 (stereo unspecified) .
23

// lookup Papp A→B at 10 µM for CC1(c2cccc(-c3cncnc3)c2)N=C(N)c2ccccc2S1 (stereo unspecified)
39

###

Parameter pKa: see the listing below.
Assay: physchem
Answer using only a numeral; do not append any unit.

| compound | readoutValue |
| --- | --- |
| CC1(c2cccc(-c3cncnc3)c2)N=C(N)c2ccccc2O1 (stereo unspecified) | 8.1 |
| COc1cccc(-c2cccc(C3(C)N=C(N)CS3)c2)c1 (stereo unspecified) | 6.9 |
| COc1cccc(-c2cccc(C3(C)CCSC(N)=N3)c2)c1 (stereo unspecified) | 7 |
| CC1(c2cccc(-c3cccc(Cl)c3)c2)N=C(N)CCO1 (stereo unspecified) | 9.3 |

Value lookup for pKa; key = COc1ccc(C2(c3cccc(-c4cncnc4)c3)CCC(N)=N2)cc1 (stereo unspecified)
10

Sample COc1cccc(-c2cccc(C3(C)N=C(N)CN3C(C)=O)c2)c1 (stereo unspecified) — what was its pKa?
6.5

###

Experiment: in vivo
Details: C57BL/6, mouse, brain, iv
readout: fraction unbound at […]
Please state the value as a number alone, without comment.

| compound | fraction unbound at […] |
| --- | --- |
| CC1(c2cccc(-c3cncnc3)c2)N=C(N)CCS1 (configuration not stated) | 0.074 |

Now let's try a different one.
Find the recorded fraction unbound at […] belonging to COc1ccc(C2(c3cccc(-c4cccnc4)c3)N=C(N)CS2)cc1 (configuration not stated) and report it.
0.01

###

Experiment: in vivo
Conditions: C57BL/6, mouse, plasma, po
readout: fraction unbound at […]
Hey, just send me the number, nothing else.

| molecule | readout | readoutValue |
| --- | --- | --- |
| COc1ccc(C2(c3cccc(-c4cncnc4)c3)N=C(N)c3nc(C)sc32)cc1 (configuration not stated) | fraction unbound at […] | 0.1 |

Query molecule follows.
Would you kindly share the measured fraction unbound at […] for COc1cccc(-c2cccc(C3(C)CCSC(N)=N3)c2)c1 (configuration not stated) ?
0.07

###

Test: in vivo
Settings: C57BL/6, mouse, brain and plasma, po
readout: Kp uu at […]
Just the number, please, no unit attached.

| compound | readout | readoutValue |
| --- | --- | --- |
| COc1cccc(-c2cccc(C3(C)CCSC(N)=N3)c2)c1 (configuration not stated) | Kp uu at […] | 0.64 |

# query: Kp uu at […] of entry COc1ccc(C2(c3cccc(-c4cncnc4)c3)N=C(N)c3nc(C)sc32)cc1 (configuration not stated)
0.04

###

Assay: in vivo
Settings: C57BL/6, mouse, brain and plasma, po
Reported Kp at […] values are given for each entry in this list.
Kindly provide the number alone.

| compound | Kp at […] |
| --- | --- |
| COc1ccc(C2(c3cccc(-c4cncnc4)c3)N=C(N)c3nc(C)sc32)cc1 (configuration not stated) | 0.2 |

Continue with the next compound.
Entry COc1cccc(-c2cccc(C3(C)CCSC(N)=N3)c2)c1 (configuration not stated) : reported Kp at […] = ?
8.9

###

Assay: in vivo
Conditions: C57BL/6, mouse, brain, po
readout: fraction unbound at […]
No unit in the answer, please; the number alone is enough.

| compound | fraction unbound at […] |
| --- | --- |
| COc1cccc(-c2cccc(C3(C)CCSC(N)=N3)c2)c1 (configuration not stated) | 0.005 |

Please examine the following record next.
Need fraction unbound at […] of COc1ccc(C2(c3cccc(-c4cncnc4)c3)N=C(N)c3nc(C)sc32)cc1 (configuration not stated) , thanks.
0.02

###

Assay: in vivo
Conditions: C57BL/6, mouse, plasma, iv
Documented fraction unbound at […] across a set of compounds

| compound | fraction unbound at […] |
| --- | --- |
| COc1ccc(C2(c3cccc(-c4cccnc4)c3)N=C(N)CS2)cc1 (configuration not stated) | 0.007 |

Please look at the following compound next.
Quick one: fraction unbound at […] of CC1(c2cccc(-c3cncnc3)c2)N=C(N)CCS1 (configuration not stated) ?
0.89

###

Assay: physchem
Measured chromatographic logD by item
Lab note: write the figure by itself, no unit.

Consider the following illustrative entries.
| compound | chromatographic logD |
| --- | --- |
| COc1cccc(-c2cccc(C3(C)CCSC(N)=N3)c2)c1 (stereo unspecified) | 2.5 |
| COc1ccc(C2(c3cccc(-c4cncnc4)c3)CCC(N)=N2)cc1 (stereo unspecified) | 0.9 |

chromatographic logD for COc1cccc(-c2cccc(C3(C)COCC(N)=N3)c2)c1 (stereo unspecified) ?
2.1

Recorded chromatographic logD for COc1cccc(-c2cccc(C3(C)N=C(N)CN3C(C)=O)c2)c1 (stereo unspecified) , please?
1.4

Given the entry COc1cccc(-c2cccc(C3(C)N=C(N)CS3)c2)c1 (stereo unspecified) , report its measured chromatographic logD.
3.6

Please give the measured chromatographic logD for this compound: CC1(c2cccc(-c3cccc(Cl)c3)c2)N=C(N)CCO1 (stereo unspecified)
3.3

Record request: chromatographic logD value, item CC1(c2cccc(-c3cncnc3)c2)N=C(N)c2ccccc2O1 (stereo unspecified)
1.2

Find the recorded chromatographic logD belonging to COc1ccc(C2(c3cccc(-c4cccnc4)c3)N=C(N)CS2)cc1 (stereo unspecified) and report it.
2.9

###

Test: in vitro
Settings: human, Caco-2, pH 7.4, Papp
# note: boundary value 20 ×10⁻⁶ cm/s maps to not met; Papp A→B at 10 µM below it maps to met

Solved cases below.
| compound | label |
| --- | --- |
| COc1ccc(C2(c3cccc(-c4cncnc4)c3)N=C(N)c3nc(C)sc32)cc1 (stereo unspecified) | met |
| CC1(c2cccc(-c3cncnc3)c2)N=C(N)c2c(F)cccc2O1 (stereo unspecified) | not met |
| CC1(c2cccc(-c3cccc(Cl)c3)c2)N=C(N)CCO1 (stereo unspecified) | met |
| COc1cccc(-c2cccc(C3(C)N=C(N)CCO3)c2)c1 (stereo unspecified) | met |
| COc1cccc(-c2cccc(C3(C)N=C(N)CCS3)c2)c1 (stereo unspecified) | met |

Switching to the query record.
Quick check: Papp A→B at 10 µM of COc1ccc(C2(c3cccc(-c4cncnc4)c3)N=C(N)n3nc(C)cc32)cc1 (stereo unspecified) under 20 ×10⁻⁶ cm/s?
not met
